This section presents molecules with their documented pKi values.
- STUDY TARGET: Kappa opiate receptor (brain) (Cavia porcellus, UniProt P41144)
- Construct: performed on fresh guinea pig brain homogenate
- Sequence (P41144 whole entry): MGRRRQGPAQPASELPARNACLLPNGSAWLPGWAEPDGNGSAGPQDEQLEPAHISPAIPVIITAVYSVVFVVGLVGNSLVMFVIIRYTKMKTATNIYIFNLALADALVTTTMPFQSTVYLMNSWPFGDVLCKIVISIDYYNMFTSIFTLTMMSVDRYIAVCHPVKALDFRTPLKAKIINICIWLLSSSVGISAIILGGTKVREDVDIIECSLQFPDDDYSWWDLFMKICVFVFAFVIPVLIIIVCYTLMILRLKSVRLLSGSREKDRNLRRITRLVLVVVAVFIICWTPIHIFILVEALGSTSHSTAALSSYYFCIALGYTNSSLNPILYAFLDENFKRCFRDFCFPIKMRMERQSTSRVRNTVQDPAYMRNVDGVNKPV
- PROCEDURE SUMMARY: Opiate receptor binding, kappa (brain)
Counter-ions that a name gives are not always drawn.
pKi is a log-scale quantity: -log10 of the concentration expressed in molar.

[
  {
    "MOLECULE": "O=C1CCCc2cc(CC(=O)N3CCCCC3CN3CCCC3)ccc21 (centres unmarked) [Example 1, hydrochloride]",
    "READOUT NUMBER": 7.09
  }
]

Here is the next item to consider.
Per the records, this molecule ( O=C1CCCc2cc(CC(=O)N3CCCC[C@H]3CN3CCCC3)ccc21 [Example 2, hydrochloride] ) has pKi equal to 7.31

----------
- STUDY TARGET: Mu opiate receptor (brain) (Cavia porcellus, UniProt A0ACM8Q262)
- Sequence (A0ACM8Q262 1-400): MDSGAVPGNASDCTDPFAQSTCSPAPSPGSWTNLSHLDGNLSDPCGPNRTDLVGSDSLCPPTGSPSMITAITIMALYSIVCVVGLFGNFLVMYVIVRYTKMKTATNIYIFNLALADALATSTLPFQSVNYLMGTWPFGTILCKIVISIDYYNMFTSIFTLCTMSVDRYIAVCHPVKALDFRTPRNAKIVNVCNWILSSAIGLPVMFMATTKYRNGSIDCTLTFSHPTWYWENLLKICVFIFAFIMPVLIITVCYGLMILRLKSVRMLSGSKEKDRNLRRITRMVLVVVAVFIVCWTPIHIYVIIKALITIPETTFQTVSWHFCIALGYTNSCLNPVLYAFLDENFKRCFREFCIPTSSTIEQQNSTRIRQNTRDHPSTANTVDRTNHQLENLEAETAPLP
Structures can show the parent of a compound that is named as a salt.
METRIC: pKi
Note: pKi values are expressed as the negative base-10 logarithm of concentration in M.

Entry under test: O=C1CCCc2cc(CC(=O)N3CCCC[C@H]3CN3CCCC3)ccc21 [Example 2, hydrochloride] . Its pKi was 5.53
